Data provenance is patent US10477864B2.

reported_property: melting point

compound="CC(Cc1ccccc1)(CC(F)(F)F)NC(=O)c1cnc2c(Cl)cccc2c1 (centres unmarked)" result="141 to 144 °C"
compound="O=C(NC(CCC(F)(F)F)Cc1ccccc1)c1cnc2c(Cl)cccc2c1 (centres unmarked)" result="163 to 167 °C"
compound="CC(Cc1ccccc1)(CC(F)(F)F)NC(=S)c1cnc2c(F)cccc2c1 (centres unmarked)" result="173 to 175 °C"
compound="Cc1ccc(CC(C)(CC(C)C)NC(=O)c2cnc3c(F)cccc3c2)cc1 (centres unmarked)" result="116 to 118 °C"
compound="C=C(C)CC(COC)(Cc1ccccc1)NC(=O)c1cnc2c(F)cccc2c1 (centres unmarked)" result="147 to 149 °C"
compound="COc1ccc2ncc(C(=O)NC(C)(Cc3ccccc3)CC(C)C)cc2c1 (centres unmarked)" result="102 to 105 °C"
compound="CC(Cc1ccccc1)(CC(F)(F)F)NC(=O)c1cnc2c(C#N)cccc2c1 (centres unmarked)" result="175 to 179 °C"
compound="CC(C)CC(C)(Cc1ccccc1)NC(=O)c1cnc2cc(C#N)ccc2c1 (centres unmarked)" result="170 to 172 °C"

Using the record for CC(Cc1ccc(F)cc1)(CC(F)(F)F)NC(=O)c1cnc2c(F)cccc2c1 (centres unmarked) , report its melting point.
146 to 147 °C

Please answer likewise for CC1(CC(C)(Cc2ccccc2)NC(=O)c2cnc3c(F)cccc3c2)CC1 (centres unmarked)
126 to 129 °C

Please answer likewise for CC(C)CC(C)(Cc1ccccc1)NC(=O)c1cnc2cc(F)ccc2c1 (centres unmarked)
142 to 144 °C

Please answer likewise for CCC(Cc1ccccc1)(CC(F)(F)F)NC(=O)c1cnc2c(F)cccc2c1 (centres unmarked)
127 to 129 °C

Please answer likewise for Cc1cccc2ncc(C(=O)NC(C)(Cc3ccccc3)CC(F)(F)F)cc12 (centres unmarked)
101 to 103 °C

Please answer likewise for CC(C)(C)CC(C)(Cc1ccccc1)NC(=O)c1cnc2c(F)cccc2c1 (centres unmarked)
48 to 50 °C

Please answer likewise for CC(C)CC(C)(Cc1ccccc1)NC(=O)c1cnc2c(Cl)cccc2c1 (centres unmarked)
147 to 148 °C

Please answer likewise for CC(C)CC(C)(Cc1ccc(F)cc1)NC(=O)c1cnc2c(F)cccc2c1 (centres unmarked)
38 to 39 °C

Please answer likewise for Cc1c(C(=O)NC(C)(Cc2ccccc2)CC(F)(F)F)cnc2c(C#N)cccc12 (centres unmarked)
194 to 197 °C
